Sourced from patent US20200360520A1

# Test system: Mycobacterium avium
# protocol-details: MIC by micro broth dilution method (resazurin microtiter assay)
# Format: cell-based
# assay-conditions: MH Broth, Mycobacterium avium Rough, read-out: Minimum Inhibitory Concentration (MIC)

compound: CO[C@H]1/C=C/O[C@@]2(C)Oc3c(C)c(O)c4c(O)c(c(/C=N/N5CCN(C)CC5)c(O)c4c3C2=O)NC(=O)/C(C)=C\C=C\[C@H](C)[C@H](O)[C@@H](C)[C@@H](O)[C@@H](C)[C@H](OC(C)=O)[C@@H]1C [Rifampicin, rifampicin]
uom: µg/mL
measurement-qualifier: =
MIC: 8
//
compound: NCC[C@H](O)C(=O)N[C@@H]1C[C@H](N)[C@@H](O[C@H]2O[C@H](CN)[C@@H](O)[C@H](O)[C@H]2O)[C@H](O)[C@H]1O[C@H]1O[C@H](CO)[C@@H](O)[C@H](N)[C@H]1O [Amikacin, amikacin]
uom: µg/mL
measurement-qualifier: =
MIC: 2
//
compound: CC[C@H]1OC(=O)[C@H](C)[C@@H](O[C@H]2C[C@@](C)(OC)[C@@H](O)[C@H](C)O2)[C@H](C)[C@@H](O[C@@H]2O[C@H](C)C[C@H](N(C)C)[C@H]2O)[C@](C)(OC)C[C@@H](C)C(=O)[C@H](C)[C@@H](O)[C@]1(C)O [Clarithromycin]
uom: µg/mL
measurement-qualifier: >
MIC: 64
//
compound: CO[C@H]1/C=C/O[C@@]2(C)Oc3c(C)c(O)c4c(O)c(c(/C=N/N5CCC(N(C)C6([C@@H]7CCN(c8c(F)cn9c(=O)c(C(=O)O)cc(C%10CC%10)c9c8C)C7)CC6)CC5)c(O)c4c3C2=O)NC(=O)/C(C)=C\C=C\[C@H](C)[C@H](O)[C@@H](C)[C@@H](O)[C@@H](C)[C@H](CC(C)=O)[C@@H]1C [Compound I]
uom: µg/mL
measurement-qualifier: >
MIC: 64
